system: Aspergillus versicolor; test: Fungicidal activity against Aspergillus versicolor ATCC 11730 after 72 hrs; type: functional; conditions: ATCC 11730, 72 h
For each of the compounds below, state its MFC.
Numbers only, in µM.

Below, 5 compounds whose answers are already recorded.
compound	unit.annotation	MFC
CNc1nc(C)c(C(=O)/C=C/c2ccc(Cl)cc2)s1	µM	340
CC(=O)N1CCN(c2ccc(OCC3COC(Cn4ccnc4)(c4ccc(Cl)cc4Cl)O3)cc2)CC1 (configuration not stated)	µM	47
CNc1nc(C)c(C(=O)/C=C/c2cccc([N+](=O)[O-])c2)s1	µM	496
CNc1nc(C)c(C(=O)/C=C/c2ccccc2Cl)s1	µM	459
CNc1nc(C)c(C(=O)/C=C/c2ccc(Cl)cc2Cl)s1	µM	612

// for each compound below, give its MFC
1. CNc1nc(C)c(C(=O)/C=C/c2ccccc2OC)s1
2. c1ccc(-c2ccc(C(c3ccccc3)n3ccnc3)cc2)cc1 (configuration not stated)

Ans.
[520, 1610]

# map each compound to its MFC
1. CNc1nc(C)c(C(=O)/C=C/c2ccc(OC)cc2)s1
2. CNc1nc(C)c(C(=O)/C=C/c2c(Cl)cccc2Cl)s1
3. CNc1nc(C)c(C(=O)/C=C/c2cccc(Cl)c2)s1

Ans.
513
459
513

Need MFC for each of these compounds.
1. CNc1nc(C)c(C(=O)/C=C/c2ccc([N+](=O)[O-])cc2)s1
2. CNc1nc(C)c(C(=O)/C=C/c2ccccc2)s1

Ans.
496
581

---

test system: Enterococcus faecalis; assay: Antibacterial activity against Enterococcus faecalis isolate obtained from human after 24 hrs by microdilution method; assay type: functional
Provide the recorded log10(MIC) for the entries that follow.
Heads up: the numbers are on a log10 scale; they represent MIC in µM.

Observe how each entry below is paired with its result.
structure.string	log10(MIC)
CNc1nc(C)c(C(=O)/C=C/c2ccccc2Cl)s1	1.88
CNc1nc(C)c(C(=O)/C=C/c2cccc([N+](=O)[O-])c2)s1	2.52
CN[C@@H]1[C@H](O[C@H]2[C@H](O[C@H]3[C@H](O)[C@@H](O)[C@H](N=C(N)N)[C@@H](O)[C@@H]3N=C(N)N)O[C@@H](C)[C@]2(O)C=O)O[C@@H](CO)[C@H](O)[C@H]1O	0.63
CNc1nc(C)c(C(=O)/C=C/c2c(Cl)cccc2Cl)s1	2.18
CNc1nc(C)c(C(=O)/C=C/c2ccccc2OC)s1	2.41

Provide log10(MIC) for all items below, preserving their order.
1. CNc1nc(C)c(C(=O)/C=C/c2ccc(Cl)cc2)s1
2. CNc1nc(C)c(C(=O)/C=C/c2cccc(Cl)c2)s1
3. CNc1nc(C)c(C(=O)/C=C/c2ccc(OC)cc2)s1

Ans.
[2.23, 1.93, 2.23]

// for each molecule in input: emit log10(MIC)
1. CNc1nc(C)c(C(=O)/C=C/c2ccccc2)s1
2. CC1(C)S[C@@H]2[C@H](NC(=O)[C@H](N)c3ccccc3)C(=O)N2[C@H]1C(=O)O
3. CNc1nc(C)c(C(=O)/C=C/c2ccc([N+](=O)[O-])cc2)s1
4. CNc1nc(C)c(C(=O)/C=C/c2ccc(Cl)cc2Cl)s1

Ans.
1: 2.29; 2: 2.39; 3: 2.22; 4: 2.49
